- Target: PDGFR-beta (Homo sapiens)
- Construct: GST (N); HIS6 (N); Thrombin cleavage site (N)
- Sequence (P09619 561-1106): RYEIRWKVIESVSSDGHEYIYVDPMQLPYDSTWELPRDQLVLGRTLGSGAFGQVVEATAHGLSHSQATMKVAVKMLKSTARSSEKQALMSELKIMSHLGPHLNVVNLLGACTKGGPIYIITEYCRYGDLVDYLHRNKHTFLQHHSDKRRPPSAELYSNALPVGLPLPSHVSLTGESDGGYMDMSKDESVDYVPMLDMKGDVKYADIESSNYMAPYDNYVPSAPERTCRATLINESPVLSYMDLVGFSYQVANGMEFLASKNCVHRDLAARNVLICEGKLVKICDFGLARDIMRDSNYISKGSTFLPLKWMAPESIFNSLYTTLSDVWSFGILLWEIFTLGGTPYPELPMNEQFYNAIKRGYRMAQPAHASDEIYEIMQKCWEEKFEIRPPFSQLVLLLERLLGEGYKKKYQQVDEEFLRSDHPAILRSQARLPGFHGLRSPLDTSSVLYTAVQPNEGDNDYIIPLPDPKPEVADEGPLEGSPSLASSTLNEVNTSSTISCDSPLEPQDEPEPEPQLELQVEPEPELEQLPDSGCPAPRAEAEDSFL
- Procedure Text: HTScan Receptor Kinase Assay, PDGFR-beta tyrosine kinase
- Test Conditions: human PDGFR-beta kinase fragment, 200 μM ATP
pIC50: −log10 of the molar value.
Assay Metric: pIC50

Consider the reported pIC50 for these molecules:
>>> observed_value("Cc1[nH]c(/C=C2\\C(=O)Nc3ccc(F)cc32)c(C)c1C(=O)NCCCC(=O)NO")
"> 7.00"
>>> observed_value("Cc1[nH]c(/C=C2\\C(=O)Nc3ccc(F)cc32)c(C)c1C(=O)NCCCCCCC(=O)NO")
"6.00 to 7.00"
>>> observed_value("Cc1[nH]c(/C=C2\\C(=O)Nc3ccc(F)cc32)c(C)c1C(=O)NCCCCCC(=O)NO")
"> 7.00"
>>> observed_value("Cc1[nH]c(/C=C2\\C(=O)Nc3ccc(F)cc32)c(C)c1C(=O)NCCCCCCCC(=O)NO")
"6.00 to 7.00"

Proceeding to the next molecule to report its pIC50.
Input: What measured pIC50 goes with `Cc1[nH]c(/C=C2\C(=O)Nc3ccc(F)cc32)c(C)c1C(=O)NCCC(=O)NO` ?
Output: 6.00 to 7.00

###

- Target: VEGFR2 (Homo sapiens)
- Construct: GST (N); HIS6 (N); Thrombin cleavage site (N)
- Sequence (P35968 807-1356 limits assumed): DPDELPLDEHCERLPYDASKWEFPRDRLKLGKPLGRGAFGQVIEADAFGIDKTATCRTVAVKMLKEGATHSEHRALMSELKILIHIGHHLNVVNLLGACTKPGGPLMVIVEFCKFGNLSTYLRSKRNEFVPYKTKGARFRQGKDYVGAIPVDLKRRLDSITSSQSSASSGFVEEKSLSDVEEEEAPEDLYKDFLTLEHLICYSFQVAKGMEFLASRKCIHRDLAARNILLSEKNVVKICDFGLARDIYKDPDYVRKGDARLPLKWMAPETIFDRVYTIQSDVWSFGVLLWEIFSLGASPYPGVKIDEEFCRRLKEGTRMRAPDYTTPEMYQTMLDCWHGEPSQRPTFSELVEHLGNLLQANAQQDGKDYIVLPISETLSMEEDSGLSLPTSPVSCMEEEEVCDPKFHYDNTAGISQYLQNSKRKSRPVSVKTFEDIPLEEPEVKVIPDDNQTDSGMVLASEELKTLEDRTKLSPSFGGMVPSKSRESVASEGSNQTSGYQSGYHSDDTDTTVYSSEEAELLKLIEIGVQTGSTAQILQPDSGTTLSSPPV
- Procedure Text: HTScan Receptor Kinase Assay, VEGFR2 tyrosine kinase
- Test Conditions: human VEGFR2 kinase domain, 200 μM ATP
Assay Metric: IC50

>>> observed_value("Cc1[nH]c(/C=C2\\C(=O)Nc3ccc(F)cc32)c(C)c1C(=O)NCCCCCC(=O)N(C)O [Compound 9]")
"< 100 nM"

Input: Would you mind telling me what IC50 value was observed for Cc1[nH]c(/C=C2\C(=O)Nc3ccc(F)cc32)c(C)c1C(=O)NCCCC(=O)NO [Compound 3] ?
Output: < 100 nM

Input: Entry Cc1[nH]c(/C=C2\C(=O)Nc3ccc(F)cc32)c(C)c1C(=O)NCCCCCCCC(=O)NO [Compound 16] has what IC50?
Output: < 100 nM
